# SYSTEM NAME: PaPepA (Pseudomonas aeruginosa, UniProt Q02RY8)
# Sequence (Q02RY8 whole entry): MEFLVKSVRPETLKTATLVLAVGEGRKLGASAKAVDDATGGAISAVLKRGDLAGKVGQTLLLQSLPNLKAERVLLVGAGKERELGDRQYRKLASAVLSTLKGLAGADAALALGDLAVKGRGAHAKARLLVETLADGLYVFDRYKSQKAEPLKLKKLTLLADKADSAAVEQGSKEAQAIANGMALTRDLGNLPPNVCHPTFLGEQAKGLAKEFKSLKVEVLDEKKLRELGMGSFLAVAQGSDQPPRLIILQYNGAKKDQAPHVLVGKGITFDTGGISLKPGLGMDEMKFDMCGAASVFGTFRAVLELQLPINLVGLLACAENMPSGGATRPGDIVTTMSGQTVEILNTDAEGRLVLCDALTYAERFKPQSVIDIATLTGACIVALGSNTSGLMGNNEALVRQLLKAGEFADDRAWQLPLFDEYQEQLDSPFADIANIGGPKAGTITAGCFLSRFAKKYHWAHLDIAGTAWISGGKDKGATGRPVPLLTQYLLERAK
# MEASUREMENT PROTOCOL: biochemical
OBSERVABLE: pKi
In simple prose, pKi is minus the logarithm base ten of a concentration in moles per litre.

Requested read-out: pKi. Entry: `CC(C)C[C@H](N)C(=O)O` 3.22

* * *

# SYSTEM NAME: PaPepA (Pseudomonas aeruginosa, UniProt Q02RY8)
# MEASUREMENT PROTOCOL: Isothermal titration calorimetry of metal binding
# Parameters: GG stays after cleavage) (N); made in house; host or cells: E. coli BL21(DE3)
# CONDITION: ITC, one binding site per monomer, 25 °C, pH 7.4
For each entry below, report its pKd value.
In simple prose, pKd is minus the logarithm base ten of a concentration in moles per litre.

Requested read-out: pKd. Entry: `[Mn+2]` 7.87

Requested read-out: pKd. Entry: `[Mg+2]` 5.67

* * *

For each entry below, report its kcat value.
# SYSTEM NAME: PaPepA (Pseudomonas aeruginosa)
# Assay type: biochemical
# Parameters: GG stays after cleavage) (N); made in house; host or cells: E. coli BL21(DE3)
# CONDITION: aa-pNA varied, 3 mM MnCl2, 100 nM PaPepA, pH 8.0, 25 °C
Report only the number, with the unit s^–1 understood.

Requested read-out: kcat. Entry: `O=C(Nc1ccc([N+](=O)[O-])cc1)[C@@H]1CCCN1` 0.081

Requested read-out: kcat. Entry: `N[C@@H](Cc1ccccc1)C(=O)Nc1ccc([N+](=O)[O-])cc1` 0.115

Requested read-out: kcat. Entry: CCC(C)[C@H](N)C(=O)Nc1ccc([N+](=O)[O-])cc1 (some centres unmarked) 0.004

Requested read-out: kcat. Entry: CC(C)C[C@H](N)C(=O)Nc1ccc([N+](=O)[O-])cc1 [Leu-pNA, reference compound] 0.254

Requested read-out: kcat. Entry: `NCCCC[C@H](N)C(=O)Nc1ccc([N+](=O)[O-])cc1` 0.039

* * *

# SYSTEM NAME: PaPepA (Pseudomonas aeruginosa)
# MEASUREMENT PROTOCOL: Metal activation of Leu-pNA cleavage (metal varied, Leu-pNA fixed)
# Assay type: biochemical
# Parameters: GG stays after cleavage) (N); made in house; host or cells: E. coli BL21(DE3)
# CONDITION: with 2 mM Leu-pNA, pH 8.0
For each entry below, report its KACT value.
Report only the number, with the unit mM understood.

Requested read-out: KACT. Entry: [Zn+2] [Zn^2+] 0.02

Requested read-out: KACT. Entry: [Co+2] [Co^2+] 0.17

Requested read-out: KACT. Entry: [Ni+2] [Ni^2+] 2.5

Requested read-out: KACT. Entry: [Mn+2] [Mn^2+] 0.10

* * *

# SYSTEM NAME: PaPepA (Pseudomonas aeruginosa)
# MEASUREMENT PROTOCOL: Metal activation of Leu-pNA cleavage (metal varied, Leu-pNA fixed)
# Assay type: biochemical
# Design: GG stays after cleavage) (N); made in house; host or cells: E. coli BL21(DE3)
# CONDITION: with 2 mM Leu-pNA, pH 8.0
OBSERVABLE: kcat

Requested read-out: kcat. Entry: [Fe+2] [Fe^2+] 0.012 ± 0.003 s^–1

Requested read-out: kcat. Entry: [Mg+2] [Mg^2+] 0.051 ± 0.002 s^–1

Requested read-out: kcat. Entry: [Ni+2] [Ni^2+] 0.077 ± 0.003 s^–1

Requested read-out: kcat. Entry: [Co+2] [Co^2+] 0.137 ± 0.002 s^–1

* * *

# SYSTEM NAME: PaPepA (Pseudomonas aeruginosa)
# Assay type: biochemical
# Design: GG stays after cleavage) (N); made in house; host or cells: E. coli BL21(DE3)
# CONDITION: aa-pNA varied, 3 mM MnCl2, 100 nM PaPepA, pH 8.0, 25 °C
OBSERVABLE: kcat (s^–1)
Report only the number, with the unit s^–1 understood.

Requested read-out: kcat. Entry: `C[C@H](N)C(=O)Nc1ccc([N+](=O)[O-])cc1` 0.037

Requested read-out: kcat. Entry: `CSCC[C@H](N)C(=O)Nc1ccc([N+](=O)[O-])cc1` 0.084

Requested read-out: kcat. Entry: `CC(C)[C@H](N)C(=O)Nc1ccc([N+](=O)[O-])cc1` 0.002

* * *

# SYSTEM NAME: PaPepA (Pseudomonas aeruginosa, UniProt Q02RY8)
# Format: biochemical
# Parameters: GG stays after cleavage) (N); made in house; host or cells: E. coli BL21(DE3)
# CONDITION: aa-pNA varied, 3 mM MnCl2, 100 nM PaPepA, pH 8.0, 25 °C
OBSERVABLE: Km (µM)
Report only the number, with the unit µM understood.

Requested read-out: Km. Entry: CCC(C)[C@H](N)C(=O)Nc1ccc([N+](=O)[O-])cc1 (stereo partly shown) 100

Requested read-out: Km. Entry: `N[C@@H](Cc1ccccc1)C(=O)Nc1ccc([N+](=O)[O-])cc1` 260

Requested read-out: Km. Entry: `C[C@H](N)C(=O)Nc1ccc([N+](=O)[O-])cc1` 220

Requested read-out: Km. Entry: `NCCCC[C@H](N)C(=O)Nc1ccc([N+](=O)[O-])cc1` 280

Requested read-out: Km. Entry: `CSCC[C@H](N)C(=O)Nc1ccc([N+](=O)[O-])cc1` 150

Requested read-out: Km. Entry: CC(C)C[C@H](N)C(=O)Nc1ccc([N+](=O)[O-])cc1 [Leu-pNA, reference compound] 160

Requested read-out: Km. Entry: `CC(C)[C@H](N)C(=O)Nc1ccc([N+](=O)[O-])cc1` 50

* * *

# SYSTEM NAME: PaPepA (Pseudomonas aeruginosa)
# MEASUREMENT PROTOCOL: Isothermal titration calorimetry of metal binding
# Design: GG stays after cleavage) (N); made in house; host or cells: E. coli BL21(DE3)
# CONDITION: ITC, first line per metal: N 1, [PepA] 35.80 ± 1.5 (Mn) or 32.60 (Mg) µM, [Metal] 400.0 or 1000 µM
# Procedure: Purified PaPepA (100 μM) was buffer exchanged into ITC buffer (50 mM Tris, 140 mM NaCl, pH 7.4) using a Millipore Amicon Ultra-4 centrifugal unit (10 kDa MWCO). The protein was syringe-filtered through a […] and diluted to 50 μM. 3 mL solutions of filtered metal were also prepared. […] Buffer, protein, and metal solutions were degassed. […] Data were analyzed using Origin(Pro), Version 2021 (OriginLab Corporation, Northampton, Massachusetts, USA), and MicroCal PEAQ-ITC analysis software (Malvern).
OBSERVABLE: Kd (µM)
Report only the number, with the unit µM understood.

Requested read-out: Kd. Entry: `[Mn+2]` 0.0122

Requested read-out: Kd. Entry: `[Mg+2]` 1.84

* * *

For each entry below, report its Kd value.
# SYSTEM NAME: PaPepA (Pseudomonas aeruginosa)
# MEASUREMENT PROTOCOL: Isothermal titration calorimetry of metal binding
# Design: GG stays after cleavage) (N); made in house; host or cells: E. coli BL21(DE3)
# CONDITION: ITC, third line per metal: N fitted, [PepA] 47.00 or 48.00 µM, [Metal] 400.0 or 1000 µM

Requested read-out: Kd. Entry: `[Mg+2]` 1840 nM

Requested read-out: Kd. Entry: `[Mn+2]` 12.2 nM

* * *

# SYSTEM NAME: PaPepA (Pseudomonas aeruginosa, UniProt Q02RY8)
# MEASUREMENT PROTOCOL: Metal activation of Leu-pNA cleavage (metal varied, Leu-pNA fixed)
# Assay type: biochemical
# Design: GG stays after cleavage) (N); made in house; host or cells: E. coli BL21(DE3)
# CONDITION: with 2 mM Leu-pNA, pH 8.0
OBSERVABLE: kcat/KACT (s^–1mM^–1)
Report only the number, with the unit s^–1mM^–1 understood.

Requested read-out: kcat/KACT. Entry: [Zn+2] [Zn^2+] 0.5

Requested read-out: kcat/KACT. Entry: [Co+2] [Co^2+] 0.80

Requested read-out: kcat/KACT. Entry: [Mg+2] [Mg^2+] 0.017

Requested read-out: kcat/KACT. Entry: [Mn+2] [Mn^2+] 2.7

Requested read-out: kcat/KACT. Entry: [Ni+2] [Ni^2+] 0.032

* * *

# SYSTEM NAME: PaPepA (Pseudomonas aeruginosa, UniProt Q02RY8)
# MEASUREMENT PROTOCOL: Isothermal titration calorimetry of metal binding
# Design: GG stays after cleavage) (N); made in house; host or cells: E. coli BL21(DE3)
# CONDITION: ITC, one binding site per monomer
OBSERVABLE: Kd (nM)
Report only the number, with the unit nM understood.

Which Kd is reported with PaPepA (Pseudomonas aeruginosa, UniProt Q02RY8) for this entry: `[Mg+2]` ? 2100
